Below, each of the compounds is paired with its reported half-life value.
- PROCEDURE_TEXT: Half life in CD-1 mouse at 0.5 mg/kg, iv
- Type: ADME, organism-based
- CONDITION_SET: in vivo
State the value, then name its unit.

The compound listed as O=C(O)[C@H]1C2CCC(CC2)[C@@H]1Nc1nc(-c2c[nH]c3ncc(F)cc23)nc2ccsc12 has a reported half-life of 120 min

Query compound follows.
The compound listed as O=C(O)[C@H]1C2CCC(CC2)[C@@H]1Nc1nc(-c2c[nH]c3ncc(F)cc23)nc2cscc12 has a reported half-life of 78 min

====

Below, each of the compounds is paired with its reported Cmax value.
- PROCEDURE_TEXT: Cmax in CD-1 mouse at 1 mg/kg, po
- Type: ADME, organism-based
- Set-up: dose 1 mg/kg, route oral
- CONDITION_SET: in vivo
Numeric only. Scale: nM

The compound listed as O=C(O)[C@H]1C2CCC(CC2)[C@@H]1Nc1nc(-c2c[nH]c3ncc(F)cc23)nc2cscc12 has a reported Cmax of 29.2

The compound listed as O=C(O)[C@H]1C2CCC(CC2)[C@@H]1Nc1nc(-c2c[nH]c3ncc(F)cc23)nc2sccc12 has a reported Cmax of 509

***
The compound listed as O=C(O)[C@H]1C2CCC(CC2)[C@@H]1Nc1nc(-c2c[nH]c3ncc(F)cc23)nc2ccsc12 has a reported Cmax of 172
